ASSAYED SYSTEM: Cyclophilin A (Homo sapiens, UniProt P62937)
Construct: made in house
Sequence (P62937 whole entry, species assumed): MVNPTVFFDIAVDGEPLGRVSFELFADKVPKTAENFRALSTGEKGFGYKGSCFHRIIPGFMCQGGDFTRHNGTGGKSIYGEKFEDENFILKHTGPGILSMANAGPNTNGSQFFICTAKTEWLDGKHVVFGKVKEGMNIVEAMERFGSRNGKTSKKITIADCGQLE
ASSAY DETAILS: AlphaLISA inhibition of binding of biotinylated Cyclosporin A to FLAG tagged Cyclophilin A
CONDITION DESCRIPTION: test concentration not given
Where a SMILES comes first, the peptide text is derived from it. [ ]: non-standard residue; d: D form. MeBmt = C/C=C/C[C@@H](C)[C@@H](O)[C@H](NC)C(=O)O; NMeL = CN[C@@H](CC(C)C)C(=O)O; Tle = CC(C)(C)[C@H](N)C(=O)O; NMeNva = CCC[C@H](NC)C(=O)O; NMeV = CN[C@H](C(=O)O)C(C)C; NMeA = CN[C@@H](C)C(=O)O; Abu = CC[C@H](N)C(=O)O; Sar = CNCC(=O)O
EXPERIMENTAL READOUT: % inhibition of CsA binding to Cyclophilin A (%)
The reply should contain only the number, in %.

Worked examples follow.
MOLECULE	UNIT TEXT	EXPERIMENTAL RESULT
C/C=C/C[C@@H](C)[C@@H](O)[C@H]1C(=O)N[C@@H](CC)C(=O)N(C)CC(=O)N(C)[C@@H](CCC)C(=O)N[C@@H](C(C)(C)C)C(=O)N(C)[C@@H](C)C(=O)N[C@@H](CC(C)C)C(=O)N[C@H](C)C(=O)N(C)[C@@H](CC(C)C)C(=O)N(C)[C@@H](CC(C)C)C(=O)N(C)[C@@H](C(C)C)C(=O)N1C [Compound C78] (cyclo([MeBmt][Abu][Sar][NMeNva][Tle][NMeA]L[dA][NMeL][NMeL][NMeV]))	%	98.58
C/C=C/C[C@@H](C)[C@@H](O)[C@H]1C(=O)N[C@@H](CC)C(=O)N(C)CC(=O)N(C)[C@@H](CCC)C(=O)N[C@@H](CC(C)C)C(=O)N(C)[C@@H](CC(C)C)C(=O)N[C@@H](CC(C)C)C(=O)N[C@H](C)C(=O)N(C)[C@@H](CC(C)C)C(=O)N(C)[C@@H](CC(C)C)C(=O)N(C)[C@@H](C(C)C)C(=O)N1C [Compound C66] (cyclo([MeBmt][Abu][Sar][NMeNva]L[NMeL]L[dA][NMeL][NMeL][NMeV]))	%	89.05

Alright, here's another molecule for you.
Please give the documented % inhibition of CsA binding to Cyclophilin A of C/C=C/C[C@@H](C)[C@@H](O)[C@H]1C(=O)N[C@@H](CC)C(=O)N(C)CC(=O)N(C)[C@H](C)C(=O)N[C@@H](C(C)C)C(=O)N(C)[C@@H](CC(C)C)C(=O)N[C@@H](C)C(=O)N[C@H](C)C(=O)N(C)[C@@H](CC(C)C)C(=O)N(C)[C@@H](CC(C)C)C(=O)N(C)[C@@H](C(C)C)C(=O)N1C 99.11

---

Cyclophilin A (Homo sapiens, UniProt P62937): reported IC50 for various compounds.
Where a SMILES comes first, the peptide text is derived from it. [ ]: non-standard residue; d: D form. MeBmt = C/C=C/C[C@@H](C)[C@@H](O)[C@H](NC)C(=O)O; NMeY = CN[C@@H](Cc1ccc(O)cc1)C(=O)O; NMeI = CC[C@H](C)[C@H](NC)C(=O)O; NMeT = CN[C@H](C(=O)O)[C@@H](C)O; NMeL = CN[C@@H](CC(C)C)C(=O)O; NMeV = CN[C@H](C(=O)O)C(C)C; NMeA = CN[C@@H](C)C(=O)O; Abu = CC[C@H](N)C(=O)O; Sar = CNCC(=O)O

COMPOUND	ASSAYED SYSTEM	IC50
C/C=C/C[C@@H](C)[C@@H](O)[C@H]1C(=O)N[C@@H](CC)C(=O)N(C)CC(=O)N(C)[C@@H](Cc2ccc(O)cc2)C(=O)N[C@@H](C(C)C)C(=O)N(C)[C@@H](CC(C)C)C(=O)N[C@@H](CC)C(=O)N[C@H](C)C(=O)N(C)[C@@H](CC(C)C)C(=O)N(C)[C@@H](CC(C)C)C(=O)N(C)[C@@H](C(C)C)C(=O)N1C [Compound C100] (cyclo([Abu][Sar][NMeY]V[NMeL][Abu][dA][NMeL][NMeL][NMeV][MeBmt]))	Cyclophilin A (Homo sapiens, UniProt P62937)	< 2000 nM
C/C=C/C[C@@H](C)[C@@H](O)[C@H]1C(=O)N[C@@H](CC)C(=O)N(C)CC(=O)N(C)[C@@H]([C@@H](C)O)C(=O)N[C@@H](CC(C)C)C(=O)N(C)[C@@H](CC(C)C)C(=O)N[C@@H](CC(C)C)C(=O)N[C@H](C)C(=O)N(C)[C@@H](CC(C)C)C(=O)N(C)[C@@H](CC(C)C)C(=O)N(C)[C@@H](C(C)C)C(=O)N1C [Compound C63] (cyclo([MeBmt][Abu][Sar][NMeT]L[NMeL]L[dA][NMeL][NMeL][NMeV]))	Cyclophilin A (Homo sapiens, UniProt P62937)	< 2000 nM

Please give the documented IC50 of C/C=C/C[C@@H](C)[C@@H](O)[C@H]1C(=O)N[C@@H](CC)C(=O)N(C)CC(=O)N(C)[C@@H]([C@@H](C)CC)C(=O)N[C@@H](CC(C)C)C(=O)N(C)[C@@H](CC(C)C)C(=O)N[C@@H](CC(C)C)C(=O)N[C@H](C)C(=O)N(C)[C@@H](CC(C)C)C(=O)N(C)[C@@H](CC(C)C)C(=O)N(C)[C@@H](C(C)C)C(=O)N1C [Compound C57] (cyclo([MeBmt][Abu][Sar][NMeI]L[NMeL]L[dA][NMeL][NMeL][NMeV])) < 2000 nM

Please give the documented IC50 of C/C=C/C[C@@H](C)[C@@H](O)[C@H]1C(=O)N[C@@H](CC)C(=O)N(C)CC(=O)N(C)[C@@H](C(C)C)C(=O)N[C@@H](C(C)C)C(=O)N(C)[C@@H](CC(C)C)C(=O)N[C@@H](CC)C(=O)N[C@H](C)C(=O)N(C)[C@@H](CC(C)C)C(=O)N(C)[C@@H](CC(C)C)C(=O)N(C)[C@@H](C(C)C)C(=O)N1C [Compound C101] (cyclo([Abu][Sar][NMeV]V[NMeL][Abu][dA][NMeL][NMeL][NMeV][MeBmt])) < 2000 nM

Please give the documented IC50 of C/C=C/C[C@@H](C)[C@@H](O)[C@H]1C(=O)N[C@@H](CC)C(=O)N(C)CC(=O)N(C)[C@@H]([C@@H](C)CC)C(=O)N[C@@H](C(C)C)C(=O)N(C)[C@@H](C)C(=O)N[C@@H](C)C(=O)N[C@H](C)C(=O)N(C)[C@@H](CC(C)C)C(=O)N(C)[C@@H](CC(C)C)C(=O)N(C)[C@@H](C(C)C)C(=O)N1C [Compound C1] (cyclo([MeBmt][Abu][Sar][NMeI]V[NMeA]A[dA][NMeL][NMeL][NMeV])) < 2000 nM
